# ASSAY_TEXT: Phytotoxicity against Zea mays (maize) assessed as growth inhibition at 150 g/ha pre-emergence treatment measured after 15 days by crop-selectivity assay
# Format: organism-based
# EXPERIMENTAL_SETUP: in vivo, 150 g/ha, read-out: GI
MEASUREMENT_KIND: inhibition at 360 h (%)
Respond numerically; units are % and should not be typed.

Q. Item under review: C#CCN1C(=O)COc2cc(F)c(N3C(=O)C4=C(CCCC4)C3=O)cc21 . Reported inhibition at 360 h?
A. 1

---

# ASSAY_TEXT: Phytotoxicity against Glycine max (soybean) assessed as growth inhibition at 7.5 g/ha post-emergence treatment measured after 15 days by crop-selectivity assay
# Assay type: organism-based
# EXPERIMENTAL_SETUP: in vivo, read-out: GI
Entries and their inhibition at 360 h values follow.

Q. GET /values?readout=inhibition at 360 h&item= C#CCN1C(=O)COc2cc(F)c(N3C(=O)C4=C(CCCC4)C3=O)cc21
A. > 10%

Q. Which inhibition at 360 h value belongs to C#CCN1C(=O)COc2cc(F)c(N3C(=O)c4ccc(F)cc4C3=O)cc21 ?
A. > 10%

---

# ASSAY_TEXT: Phytotoxicity against Brassica rapa subsp. oleifera assessed as growth inhibition at 30 g/ha post-emergence treatment measured after 15 days by crop-selectivity assay
# Format: organism-based
# EXPERIMENTAL_SETUP: in vivo, read-out: GI
MEASUREMENT_KIND: inhibition at 360 h

| MOLECULE | MEASUREMENT_KIND | RESULT |
| --- | --- | --- |
| C#CCN1C(=O)COc2cc(F)c(N3C(=O)c4ccc(F)cc4C3=O)cc21 | inhibition at 360 h | > 10% |

Q. Given C#CCN1C(=O)COc2cc(F)c(N3C(=O)C4=C(CCCC4)C3=O)cc21 [FLUMIOXAZIN] , state its recorded inhibition at 360 h.
A. > 10%

---

# ASSAY_TEXT: Phytotoxicity against Oryza sativa (rice) assessed as growth inhibition at 7.5 g/ha pre-emergence treatment measured after 15 days by crop-selectivity assay
# Format: organism-based
# EXPERIMENTAL_SETUP: in vivo, 7.5 g/ha, read-out: GI
MEASUREMENT_KIND: inhibition at 360 h

Q. Form field: reported inhibition at 360 h of C#CCN1C(=O)COc2cc(F)c(N3C(=O)C4=C(CCCC4)C3=O)cc21
A. > 10%

---

# ASSAY_TEXT: Phytotoxicity against Glycine max (soybean) assessed as growth inhibition at 150 g/ha pre-emergence treatment measured after 15 days by crop-selectivity assay
# Format: organism-based
# EXPERIMENTAL_SETUP: in vivo, read-out: GI
MEASUREMENT_KIND: inhibition at 360 h

| COMPOUND | RESULT |
| --- | --- |
| C#CCN1C(=O)COc2cc(F)c(N3C(=O)c4ccc(F)cc4C3=O)cc21 | > 10% |

Next up:
Q. What value of inhibition at 360 h has been recorded for this entry: C#CCN1C(=O)COc2cc(F)c(N3C(=O)C4=C(CCCC4)C3=O)cc21 [FLUMIOXAZIN]
A. > 10%

---

# Tested on: Amaranthus blitum
# ASSAY_TEXT: Herbicidal activity against Amaranthus blitum assessed as weed growth inhibition at 75 g/ha post-emergence treatment […]
# Type: functional
# EXPERIMENTAL_SETUP: read-out: GI
compounds and their reported inhibition of growth at 75 g/ha

| COMPOUND | SYSTEM_TESTED | inhibition of growth at 75 g/ha |
| --- | --- | --- |
| Cc1ccc2c(c1)C(=O)N(c1cc3c(cc1F)OC(C)C(=O)N3CC#CI)C2=O (stereo not given) | Amaranthus blitum | > 80% |
| CC1Oc2cc(F)c(N3C(=O)c4cccc(F)c4C3=O)cc2N(CC#CI)C1=O (stereo not given) | Amaranthus blitum | > 80% |
| C#CCN1C(=O)C(C)Oc2cc(F)c(N3C(=O)c4ccccc4C3=O)cc21 (stereo not given) | Amaranthus blitum | > 80% |
| O=C1COc2cc(F)c(N3C(=O)c4ccccc4C3=O)cc2N1CC#CBr | Amaranthus blitum | < 50% |

Q. Value wanted: inhibition of growth at 75 g/ha (Amaranthus blitum) of entry C#CCN1C(=O)C(C)Oc2cc(F)c(N3C(=O)c4ccc(C)cc4C3=O)cc21 (stereo not given)
A. > 80%

Q. Form field: inhibition of growth at 75 g/ha recorded for C#CCN1C(=O)COc2cc(F)c(N3C(=O)C4=C(CCCC4)C3=O)cc21 with Amaranthus blitum (enter value)
A. > 80%

---

As shown below, each of these compounds has a reported inhibition at 360 h value.
# ASSAY_TEXT: Phytotoxicity against Brassica rapa subsp. oleifera assessed as growth inhibition at 15 g/ha post-emergence treatment measured after 15 days by crop-selectivity assay
# Format: organism-based
# EXPERIMENTAL_SETUP: in vivo, read-out: GI

| COMPOUND | inhibition at 360 h |
| --- | --- |
| C#CCN1C(=O)COc2cc(F)c(N3C(=O)c4ccc(F)cc4C3=O)cc21 | > 10% |

Let us examine a further case.
Q. I have this compound here, C#CCN1C(=O)COc2cc(F)c(N3C(=O)C4=C(CCCC4)C3=O)cc21 [FLUMIOXAZIN] , and I need its recorded inhibition at 360 h.
A. > 10%

---

# Tested on: Abutilon theophrasti
# ASSAY_TEXT: Herbicidal activity against Abutilon theophrasti (velvetleaf) assessed as weed growth inhibition at 75 g/ha post-emergence treatment […]
# Assay type: functional
# EXPERIMENTAL_SETUP: read-out: GI
MEASUREMENT_KIND: inhibition of growth at 75 g/ha

| MOLECULE | inhibition of growth at 75 g/ha |
| --- | --- |
| C#CCN1C(=O)C(C)Oc2cc(F)c(N3C(=O)c4cccc(F)c4C3=O)cc21 (stereo not given) | > 80% |

Q. Returns the measured inhibition of growth at 75 g/ha for the input molecule. Input: CN1C(=O)COc2cc(F)c(N3C(=O)c4ccc(F)cc4C3=O)cc21
A. < 50%

Q. Request the reported inhibition of growth at 75 g/ha associated with N#CCN1C(=O)COc2cc(F)c(N3C(=O)c4ccccc4C3=O)cc21
A. < 50%

Q. Entry under review: C#CCN1C(=O)COc2cc(F)c(N3C(=O)c4ccc(F)cc4C3=O)cc21 . Reported inhibition of growth at 75 g/ha?
A. > 80%

---

# System: Setaria viridis
# ASSAY_TEXT: Herbicidal activity against Setaria viridis (green foxtail) assessed as weed growth inhibition at 75 g/ha pre-emergence treatment […]
# Assay type: functional
# EXPERIMENTAL_SETUP: read-out: GI
Below, each entry is listed with its recorded inhibition of growth at 75 g/ha.

| MOLECULE | SYSTEM_TESTED | inhibition of growth at 75 g/ha |
| --- | --- | --- |
| C#CCN1C(=O)COc2cc(F)c(N3C(=O)c4cccc(C)c4C3=O)cc21 | Setaria viridis | < 50% |
| O=C1COc2cc(F)c(N3C(=O)C4=C(CCCC4)C3=O)cc2N1CC#CI | Setaria viridis | > 80% |
| C#CCN1C(=O)COc2cc(F)c(N3C(=O)c4cccc([N+](=O)[O-])c4C3=O)cc21 | Setaria viridis | < 50% |

Q. Return inhibition of growth at 75 g/ha measured with Setaria viridis given this molecule: C#CCN1C(=O)COc2cc(F)c(N3C(=O)c4ccc(C)cc4C3=O)cc21
A. < 50%

Q. Missing value: inhibition of growth at 75 g/ha, Setaria viridis, entry C#CCN1C(=O)COc2cc(F)c(N3C(=O)c4cccc(F)c4C3=O)cc21 . Fill in?
A. > 80%

Q. Reported inhibition of growth at 75 g/ha for Setaria viridis, given CC1Oc2cc(F)c(N3C(=O)c4cccc(F)c4C3=O)cc2N(CC#CI)C1=O (stereo not given) ?
A. < 50%

Q. GET /values?readout=inhibition of growth at 75 g/ha&system=Setaria viridis&item= Cc1ccc2c(c1)C(=O)N(c1cc3c(cc1F)OC(C)C(=O)N3CC#CI)C2=O (stereo not given)
A. < 50%

Q. Short answer please: inhibition of growth at 75 g/ha, Setaria viridis, entry O=C1COc2cc(F)c(N3C(=O)c4cccc(F)c4C3=O)cc2N1CC#CI
A. < 50%

Q. Reported inhibition of growth at 75 g/ha for Setaria viridis, given C#CCN1C(=O)COc2cc(F)c(N3C(=O)c4ccc(F)cc4C3=O)cc21 ?
A. > 80%

Q. Could you share what inhibition of growth at 75 g/ha was measured for O=C1COc2cc(F)c(N3C(=O)c4ccccc4C3=O)cc2N1CC#CI , tested on Setaria viridis?
A. 50%

---

# System: Digitaria sanguinalis
# ASSAY_TEXT: Herbicidal activity against crabgrass Digitaria sanguinalis(hairy crabgrass) assessed as weed growth inhibition at post-emergence treatment […]
# Assay type: functional, organism-based
Note to self: use Fulfilled only for IC50 readings below 40 g/ha; a reading exactly at 40 g/ha still gets Not fulfilled.

Q. Quick check: does CN1C(=O)COc2cc(F)c(N3C(=O)c4cccc(F)c4C3=O)cc21 have IC50 under 40 g/ha?
A. Not fulfilled

Q. Determine whether this compound shows IC50 lower than 40 g/ha (ties excluded): CC1Oc2cc(F)c(N3C(=O)c4ccccc4C3=O)cc2N(CC#CI)C1=O (stereo not given)
A. Not fulfilled

Q. I wonder whether O=C1COc2cc(F)c(N3C(=O)C4=C(CCCC4)C3=O)cc2N1CC#CI has IC50 below 40 g/ha. Can you tell?
A. Fulfilled

Cited source: ChEMBL document CHEMBL3045292
